- assayExplanation: Plasma concentration of omeprazole and hydroxyomeprazole by HPLC 3 hours after a single oral 20 mg omeprazole dose
- Format: in vivo, human
- runConditions: both sexes, human, plasma, po, 20 mg, plasma, genotype 1*2, Total (33), 3 h after single oral 20 mg omeprazole; read-out: Mean OMP concentration ± SD
measure: concentration at 3 h (ng/mL)
Numbers only here, please. The scale is ng/mL.

Request: Using the record for COc1ccc2[nH]c([S+]([O-])Cc3ncc(C)c(OC)c3C)nc2c1 (stereo not shown) , report its concentration at 3 h.
Response: 319

###

- assayExplanation: Plasma concentration of omeprazole and hydroxyomeprazole by HPLC 3 hours after a single oral 20 mg omeprazole dose
- Format: in vivo, human
- runConditions: female, human, plasma, po, 20 mg, plasma, genotype 1*2, Women (13), 3 h after single oral 20 mg omeprazole; read-out: Mean OMP concentration ± SD
measure: concentration at 3 h (ng/mL)
Numbers only here, please. The scale is ng/mL.

Request: Using the record for COc1ccc2[nH]c([S+]([O-])Cc3ncc(C)c(OC)c3C)nc2c1 (stereo not shown) , report its concentration at 3 h.
Response: 365
